- experimental system: UniProt P08581
- Sequence (P08581 whole entry): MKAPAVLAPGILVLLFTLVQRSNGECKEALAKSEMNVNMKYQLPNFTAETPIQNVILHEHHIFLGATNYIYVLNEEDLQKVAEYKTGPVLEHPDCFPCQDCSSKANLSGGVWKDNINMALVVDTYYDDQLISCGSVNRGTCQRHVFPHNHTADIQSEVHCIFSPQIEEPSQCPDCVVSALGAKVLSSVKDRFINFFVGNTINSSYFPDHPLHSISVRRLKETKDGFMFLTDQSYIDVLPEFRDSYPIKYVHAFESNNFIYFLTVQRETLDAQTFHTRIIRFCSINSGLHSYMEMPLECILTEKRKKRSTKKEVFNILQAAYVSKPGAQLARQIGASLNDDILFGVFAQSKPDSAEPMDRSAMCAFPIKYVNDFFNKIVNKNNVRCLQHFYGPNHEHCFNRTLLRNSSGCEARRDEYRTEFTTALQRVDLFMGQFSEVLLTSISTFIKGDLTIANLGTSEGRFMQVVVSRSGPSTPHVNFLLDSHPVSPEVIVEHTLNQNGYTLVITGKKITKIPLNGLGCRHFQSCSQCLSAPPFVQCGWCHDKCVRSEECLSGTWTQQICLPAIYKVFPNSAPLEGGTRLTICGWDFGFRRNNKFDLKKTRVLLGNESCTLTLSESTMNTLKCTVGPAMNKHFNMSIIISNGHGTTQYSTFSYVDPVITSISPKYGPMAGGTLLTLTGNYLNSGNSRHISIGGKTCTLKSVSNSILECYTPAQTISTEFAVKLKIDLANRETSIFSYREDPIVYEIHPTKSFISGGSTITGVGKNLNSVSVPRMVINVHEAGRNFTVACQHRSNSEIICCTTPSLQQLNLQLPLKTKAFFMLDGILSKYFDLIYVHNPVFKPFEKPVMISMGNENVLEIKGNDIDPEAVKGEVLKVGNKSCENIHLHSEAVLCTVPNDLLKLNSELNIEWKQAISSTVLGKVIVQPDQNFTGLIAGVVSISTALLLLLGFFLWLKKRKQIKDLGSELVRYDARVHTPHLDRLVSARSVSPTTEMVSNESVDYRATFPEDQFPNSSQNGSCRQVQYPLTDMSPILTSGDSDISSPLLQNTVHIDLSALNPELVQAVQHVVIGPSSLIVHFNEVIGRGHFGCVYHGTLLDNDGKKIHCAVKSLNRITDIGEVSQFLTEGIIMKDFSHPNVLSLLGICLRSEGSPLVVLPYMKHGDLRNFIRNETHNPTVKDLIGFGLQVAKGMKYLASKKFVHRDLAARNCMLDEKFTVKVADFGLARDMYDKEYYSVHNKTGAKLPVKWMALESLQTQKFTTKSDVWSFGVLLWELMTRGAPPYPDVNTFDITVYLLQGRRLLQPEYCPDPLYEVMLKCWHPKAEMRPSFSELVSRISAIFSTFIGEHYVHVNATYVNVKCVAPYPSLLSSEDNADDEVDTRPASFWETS
- assay: Inhibition of recombinant c-Met (unknown origin) using poly (Glu,Tyr) 4:1 as substrate after 60 mins by ELISA
Below: a set of entries, each annotated with reported IC50.

Consider the following illustrative entries.
structure_notation=Cc1n[nH]c2ccc(-c3cc(N[C@@H](CO)c4ccccc4)cnc3-c3ccc(F)cc3O)cc12 result="> 1000 nM"
structure_notation=Cc1n[nH]c2ccc(-c3cc(N[C@@H](CO)c4ccccc4)cnc3-c3cc(F)ccc3O)cc12 result="> 1000 nM"
structure_notation=OC[C@H](Nc1cnc(-c2cc(Cl)ccc2O)c(-c2ccc3cnccc3c2)c1)c1ccccc1 result="196 nM"

Here is another compound to look at.
Consider the compound Cc1n[nH]c2ccc(-c3cc(N[C@@H](CO)c4ccccc4)cnc3-c3cc(Cl)ccc3O)cc12 . State its measured IC50.
> 1000 nM

----------
- experimental system: UniProt P11802
- assay: Inhibition of CDK4 (unknown origin) by FRET assay
assay metric: IC50

Example entries begin here.
structure_notation=Cc1n[nH]c2ccc(-c3cc(N[C@@H](CO)c4ccccc4)cnc3-c3ccc(F)cc3O)cc12 result="> 1000 nM"
structure_notation=Cc1n[nH]c2ccc(-c3cc(N[C@@H](CO)c4ccccc4)cnc3-c3cc(Cl)ccc3O)cc12 result="> 1000 nM"

Pending compound:
Specify reported IC50 for the compound shown: OC[C@H](Nc1cnc(-c2cc(Cl)ccc2O)c(-c2ccc3cnccc3c2)c1)c1ccccc1
> 1000 nM

----------
- experimental system: Receptor tyrosine-protein kinase erbB-2 (Homo sapiens)
- assay: Inhibition of recombinant ErbB2 (unknown origin) using poly (Glu,Tyr) 4:1 as substrate after 60 mins by ELISA
pIC50: −log10 of the molar value.
Recorded pIC50 by entry

structure_notation=Cc1n[nH]c2ccc(-c3cc(N[C@@H](CO)c4ccccc4)cnc3-c3cc(Cl)ccc3O)cc12 result="8.00 to 9.00"
structure_notation=Cc1n[nH]c2ccc(-c3cc(N[C@@H](CO)c4ccccc4)cnc3-c3ccc(F)cc3O)cc12 result="8.00 to 9.00"
structure_notation=Cc1n[nH]c2ccc(-c3cc(N[C@@H](CO)c4ccccc4)cnc3-c3cc(F)ccc3O)cc12 result="< 8.00"

Let's switch to this compound now.
Answer with reported pIC50 of OC[C@H](Nc1cnc(-c2cc(Cl)ccc2O)c(-c2ccc3cnccc3c2)c1)c1ccccc1
8.00 to 9.00

----------
- experimental system: Proto-oncogene tyrosine-protein kinase receptor Ret (Homo sapiens)
- Sequence (P07949 whole entry): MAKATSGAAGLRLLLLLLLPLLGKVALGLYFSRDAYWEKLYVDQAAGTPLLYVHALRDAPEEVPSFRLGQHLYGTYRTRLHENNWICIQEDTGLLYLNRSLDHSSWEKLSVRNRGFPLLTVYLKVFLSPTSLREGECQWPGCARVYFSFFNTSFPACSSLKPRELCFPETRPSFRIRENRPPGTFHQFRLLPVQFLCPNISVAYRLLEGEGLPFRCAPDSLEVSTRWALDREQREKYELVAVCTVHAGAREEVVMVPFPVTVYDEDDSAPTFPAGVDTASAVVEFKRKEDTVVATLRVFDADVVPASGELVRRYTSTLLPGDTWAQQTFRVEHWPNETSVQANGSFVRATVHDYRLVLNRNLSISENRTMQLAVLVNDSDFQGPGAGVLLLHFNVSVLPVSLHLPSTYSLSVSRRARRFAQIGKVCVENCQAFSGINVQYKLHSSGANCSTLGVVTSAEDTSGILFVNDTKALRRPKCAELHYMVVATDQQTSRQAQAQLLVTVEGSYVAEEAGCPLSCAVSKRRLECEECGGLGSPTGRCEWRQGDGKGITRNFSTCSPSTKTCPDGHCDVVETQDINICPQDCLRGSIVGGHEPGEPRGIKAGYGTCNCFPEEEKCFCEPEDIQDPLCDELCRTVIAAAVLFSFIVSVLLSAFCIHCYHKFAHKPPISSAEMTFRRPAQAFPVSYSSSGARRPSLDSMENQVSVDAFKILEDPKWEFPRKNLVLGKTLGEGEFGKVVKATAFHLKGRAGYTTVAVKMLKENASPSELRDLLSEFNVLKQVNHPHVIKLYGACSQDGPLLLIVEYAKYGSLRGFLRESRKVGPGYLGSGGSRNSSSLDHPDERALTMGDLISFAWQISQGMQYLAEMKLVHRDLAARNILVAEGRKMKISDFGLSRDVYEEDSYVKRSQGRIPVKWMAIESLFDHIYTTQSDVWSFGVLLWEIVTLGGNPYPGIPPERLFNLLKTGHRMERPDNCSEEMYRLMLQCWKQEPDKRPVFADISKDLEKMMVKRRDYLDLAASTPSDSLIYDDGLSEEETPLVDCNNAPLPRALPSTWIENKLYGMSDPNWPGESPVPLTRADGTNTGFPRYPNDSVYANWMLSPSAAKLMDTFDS
- assay: Inhibition of recombinant Ret (unknown origin) using poly (Glu,Tyr) 4:1 as substrate after 60 mins by ELISA
assay metric: IC50 (nM)
Please state the figure in nM; there is no need to write the unit.

Examples with their reported IC50 follow.
structure_notation=Cc1n[nH]c2ccc(-c3cc(N[C@@H](CO)c4ccccc4)cnc3-c3ccc(F)cc3O)cc12 experimental_system="Proto-oncogene tyrosine-protein kinase receptor Ret (Homo sapiens)" assay_metric=IC50 measured_number=0.4
structure_notation=Cc1n[nH]c2ccc(-c3cc(N[C@@H](CO)c4ccccc4)cnc3-c3cc(Cl)ccc3O)cc12 experimental_system="Proto-oncogene tyrosine-protein kinase receptor Ret (Homo sapiens)" assay_metric=IC50 measured_number=0.7
structure_notation=OC[C@H](Nc1cnc(-c2cc(Cl)ccc2O)c(-c2ccc3cnccc3c2)c1)c1ccccc1 experimental_system="Proto-oncogene tyrosine-protein kinase receptor Ret (Homo sapiens)" assay_metric=IC50 measured_number=0.04

// next entry
Answer with the recorded IC50 of Cc1n[nH]c2ccc(-c3cc(N[C@@H](CO)c4ccccc4)cnc3-c3cc(F)ccc3O)cc12 only.
0.2

----------
Quick reference for pIC50 among some compounds
- experimental system: Fibroblast growth factor receptor 4 (Homo sapiens)
- Sequence (P22455 whole entry): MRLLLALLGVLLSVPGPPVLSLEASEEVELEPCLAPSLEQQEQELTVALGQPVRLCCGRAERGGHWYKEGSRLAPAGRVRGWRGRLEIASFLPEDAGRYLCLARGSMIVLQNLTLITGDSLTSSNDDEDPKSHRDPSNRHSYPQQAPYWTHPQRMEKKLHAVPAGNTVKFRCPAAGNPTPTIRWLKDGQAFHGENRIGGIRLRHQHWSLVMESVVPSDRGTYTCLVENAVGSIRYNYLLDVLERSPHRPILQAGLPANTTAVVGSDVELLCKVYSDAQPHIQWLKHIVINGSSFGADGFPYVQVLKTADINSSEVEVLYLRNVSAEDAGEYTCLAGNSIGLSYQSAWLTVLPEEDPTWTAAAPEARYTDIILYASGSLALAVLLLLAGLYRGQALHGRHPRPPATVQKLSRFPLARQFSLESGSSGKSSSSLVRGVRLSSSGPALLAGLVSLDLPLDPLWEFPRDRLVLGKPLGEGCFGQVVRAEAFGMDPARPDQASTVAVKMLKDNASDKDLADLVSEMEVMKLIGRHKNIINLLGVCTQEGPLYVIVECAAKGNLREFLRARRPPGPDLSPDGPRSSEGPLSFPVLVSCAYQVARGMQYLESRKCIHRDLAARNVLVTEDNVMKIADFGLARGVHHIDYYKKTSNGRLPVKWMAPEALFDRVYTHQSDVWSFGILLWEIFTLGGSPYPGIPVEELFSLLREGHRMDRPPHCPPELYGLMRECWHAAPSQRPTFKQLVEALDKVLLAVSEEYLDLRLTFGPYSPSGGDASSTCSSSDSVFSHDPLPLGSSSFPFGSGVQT
- assay: Inhibition of recombinant human FGFR4 using poly (Glu,Tyr) 4:1 as substrate after 60 mins by ELISA
# reply with the number alone; pIC50 is -log10 of concentration in mol/L

structure_notation=Cc1n[nH]c2ccc(-c3cc(N[C@@H](CO)c4ccccc4)cnc3-c3cc(Cl)ccc3O)cc12 assay_metric=pIC50 measured_number=7.21
structure_notation=Cc1n[nH]c2ccc(-c3cc(N[C@@H](CO)c4ccccc4)cnc3-c3cc(F)ccc3O)cc12 assay_metric=pIC50 measured_number=6.52
structure_notation=Cc1n[nH]c2ccc(-c3cc(N[C@@H](CO)c4ccccc4)cnc3-c3ccc(F)cc3O)cc12 assay_metric=pIC50 measured_number=7.03

// below: pIC50 requested for another compound
Entry OC[C@H](Nc1cnc(-c2cc(Cl)ccc2O)c(-c2ccc3cnccc3c2)c1)c1ccccc1 needs its pIC50 filled in; supply it.
8.13

----------
- experimental system: Discoidin domain-containing receptor 2 (Homo sapiens)
- assay: Inhibition of recombinant DDR2 (unknown origin) using poly (Glu,Tyr) 4:1 as substrate after 60 mins by ELISA
assay metric: IC50 (nM)
Write down the numeric answer in nM and omit the unit.

Identify measured IC50 associated with Cc1n[nH]c2ccc(-c3cc(N[C@@H](CO)c4ccccc4)cnc3-c3cc(F)ccc3O)cc12
0.8

----------
- experimental system: ALK tyrosine kinase receptor (Homo sapiens, UniProt Q9UM73)
This section presents molecules with their documented pIC50 values.
pIC50 here is simply -log10 of the concentration when that concentration is written in mol/L.

structure_notation=Cc1n[nH]c2ccc(-c3cc(N[C@@H](CO)c4ccccc4)cnc3-c3cc(F)ccc3O)cc12 measured_number=7.00

// next item, pIC50 requested
Quote ALK tyrosine kinase receptor (Homo sapiens, UniProt Q9UM73) pIC50 for entry Cc1n[nH]c2ccc(-c3cc(N[C@@H](CO)c4ccccc4)cnc3-c3cc(Cl)ccc3O)cc12 .
6.64

----------
- assay: Tmax in CD-1 mouse at 5 mg/kg, iv by LC-MS/MS method
- Format: ADME, organism-based
- condition set: in vivo
assay metric: Tmax (h)
# value in h; strip the unit string

Using the record for Cc1n[nH]c2ccc(-c3cc(N[C@@H](CO)c4ccccc4)cnc3-c3cc(F)ccc3O)cc12 , state its measured Tmax.
1.5

----------
Recorded pIC50 for the following compounds
- experimental system: Ephrin type-A receptor 2 (Homo sapiens, UniProt P29317)
- assay: Inhibition of recombinant EPH-A2 (unknown origin) using poly (Glu,Tyr) 4:1 as substrate after 60 mins by ELISA
pIC50: −log10 of the molar value.

Examples with their reported pIC50 follow.
structure_notation=Cc1n[nH]c2ccc(-c3cc(N[C@@H](CO)c4ccccc4)cnc3-c3ccc(F)cc3O)cc12 result="< 7.00"
structure_notation=OC[C@H](Nc1cnc(-c2cc(Cl)ccc2O)c(-c2ccc3cnccc3c2)c1)c1ccccc1 result="< 7.00"
structure_notation=Cc1n[nH]c2ccc(-c3cc(N[C@@H](CO)c4ccccc4)cnc3-c3cc(Cl)ccc3O)cc12 result="< 8.00"

Name the recorded pIC50 of Cc1n[nH]c2ccc(-c3cc(N[C@@H](CO)c4ccccc4)cnc3-c3cc(F)ccc3O)cc12 , assay system Ephrin type-A receptor 2 (Homo sapiens, UniProt P29317).
< 8.00

----------
The entries below are paired with their reported pIC50.
- experimental system: Fibroblast growth factor receptor 3 (Homo sapiens, UniProt P22607)
- Sequence (P22607 whole entry): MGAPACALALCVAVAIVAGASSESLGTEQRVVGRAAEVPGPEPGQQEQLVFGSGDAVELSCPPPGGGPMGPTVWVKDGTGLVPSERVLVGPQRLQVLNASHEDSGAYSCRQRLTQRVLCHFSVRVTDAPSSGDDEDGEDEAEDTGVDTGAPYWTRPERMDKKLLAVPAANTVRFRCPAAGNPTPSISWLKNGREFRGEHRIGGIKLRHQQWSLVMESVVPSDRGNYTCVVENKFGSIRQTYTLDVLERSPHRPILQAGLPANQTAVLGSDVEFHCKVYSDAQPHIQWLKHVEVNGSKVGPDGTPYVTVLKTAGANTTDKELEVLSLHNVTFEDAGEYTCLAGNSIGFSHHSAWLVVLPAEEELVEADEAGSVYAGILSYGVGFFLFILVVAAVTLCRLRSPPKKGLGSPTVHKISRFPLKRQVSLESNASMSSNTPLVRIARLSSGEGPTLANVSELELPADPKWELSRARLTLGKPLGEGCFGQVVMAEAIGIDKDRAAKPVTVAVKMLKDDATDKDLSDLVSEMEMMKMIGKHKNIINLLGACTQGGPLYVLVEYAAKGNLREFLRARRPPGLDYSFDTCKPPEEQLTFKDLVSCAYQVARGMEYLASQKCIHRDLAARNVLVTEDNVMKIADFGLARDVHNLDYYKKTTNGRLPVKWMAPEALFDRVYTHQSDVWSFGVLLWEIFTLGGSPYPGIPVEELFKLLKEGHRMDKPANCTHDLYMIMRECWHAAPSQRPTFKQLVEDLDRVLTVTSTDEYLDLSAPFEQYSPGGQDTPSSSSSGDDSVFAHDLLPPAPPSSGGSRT
- assay: Inhibition of recombinant human FGFR3 using poly (Glu,Tyr) 4:1 as substrate after 60 mins by ELISA
Field pIC50 (float): negative decimal logarithm of the concentration in molar.

structure_notation=CC(=O)Nc1ccccc1-c1ncc(N[C@@H](CO)c2ccccc2)cc1-c1ccc2[nH]nc(C)c2c1 experimental_system="Fibroblast growth factor receptor 3 (Homo sapiens, UniProt P22607)" assay_metric=pIC50 measured_number=5.44

Below: the item to evaluate.
Report value: pIC50, system: Fibroblast growth factor receptor 3 (Homo sapiens, UniProt P22607), compound: Cc1n[nH]c2ccc(-c3cc(N[C@@H](CO)c4ccccc4)cnc3-c3ccccc3O)cc12
8.10

----------
- assay: AUC (0 to t) in Sprague-Dawley rat at 10 mg/kg, iv by LC-MS/MS method
- Assay type: ADME, organism-based
- condition set: in vivo
assay metric: AUC(0-t) (ng·h/mL)
Please give a number only; it is taken to be in ng·h/mL.

Give reported AUC(0-t) value for Cc1n[nH]c2ccc(-c3cc(N[C@@H](CO)c4ccccc4)cnc3-c3cc(F)ccc3O)cc12
13700

----------
- experimental system: Fibroblast growth factor receptor 2 (Homo sapiens)
- Sequence (P21802 whole entry): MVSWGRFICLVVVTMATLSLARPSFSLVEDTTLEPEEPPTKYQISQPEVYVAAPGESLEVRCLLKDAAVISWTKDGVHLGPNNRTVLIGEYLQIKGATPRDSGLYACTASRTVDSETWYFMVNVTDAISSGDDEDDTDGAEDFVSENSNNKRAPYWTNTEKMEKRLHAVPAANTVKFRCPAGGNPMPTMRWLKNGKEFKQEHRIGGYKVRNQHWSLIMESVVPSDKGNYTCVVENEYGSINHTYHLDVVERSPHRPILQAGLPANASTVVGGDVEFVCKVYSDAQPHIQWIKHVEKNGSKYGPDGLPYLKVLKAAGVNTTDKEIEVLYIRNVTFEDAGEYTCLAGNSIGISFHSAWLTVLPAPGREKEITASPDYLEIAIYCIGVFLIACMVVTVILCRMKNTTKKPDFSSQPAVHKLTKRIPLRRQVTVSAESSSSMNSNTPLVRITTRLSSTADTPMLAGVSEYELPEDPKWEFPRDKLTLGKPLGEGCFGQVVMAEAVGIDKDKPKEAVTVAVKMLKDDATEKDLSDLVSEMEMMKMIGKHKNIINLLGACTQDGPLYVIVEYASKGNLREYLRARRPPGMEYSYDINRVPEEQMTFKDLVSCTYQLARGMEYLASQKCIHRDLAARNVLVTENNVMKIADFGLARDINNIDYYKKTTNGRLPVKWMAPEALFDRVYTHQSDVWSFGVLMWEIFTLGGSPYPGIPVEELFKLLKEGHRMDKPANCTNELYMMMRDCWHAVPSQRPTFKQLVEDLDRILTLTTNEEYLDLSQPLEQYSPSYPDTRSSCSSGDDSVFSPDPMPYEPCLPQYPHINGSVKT
Documented IC50 across a set of compounds
Expressed in nM, but write only the number.

In the examples that follow, each entry is paired with its recorded IC50.
structure_notation=O=C1Cc2cc(-c3cc(N[C@@H](CO)c4ccccc4)cnc3-c3cc(Cl)ccc3O)ccc2N1 experimental_system="Fibroblast growth factor receptor 2 (Homo sapiens)" unit_of_measurement=nM measured_number=154
structure_notation=Cc1ccc(O)c(-c2ncc(N[C@@H](CO)c3ccccc3)cc2-c2ccc3[nH]nc(C)c3c2)c1 experimental_system="Fibroblast growth factor receptor 2 (Homo sapiens)" unit_of_measurement=nM measured_number=16.1
structure_notation=Cc1n[nH]c2ccc(-c3cc(N[C@@H](CO)c4ccccc4)cnc3-c3cccc(F)c3O)cc12 experimental_system="Fibroblast growth factor receptor 2 (Homo sapiens)" unit_of_measurement=nM measured_number=2.5

Provide Fibroblast growth factor receptor 2 (Homo sapiens) IC50 reading for Cc1n[nH]c2ccc(-c3cc(N[C@@H](CO)c4ccccc4)cnc3-c3cc(F)c(F)cc3O)cc12 .
2.8

Give measured IC50 for Cc1n[nH]c2ccc(-c3cc(N[C@@H](CO)c4ccccc4)cnc3-c3ccccc3F)cc12 (Fibroblast growth factor receptor 2 (Homo sapiens)).
44.6

Please tell me the measured IC50 for Cc1n[nH]c2ccc(-c3cc(N[C@@H](CO)c4ccccc4)cnc3-c3cc(Cl)ccc3O)cc12 ; system: Fibroblast growth factor receptor 2 (Homo sapiens).
8.6

Provide IC50, tested on Fibroblast growth factor receptor 2 (Homo sapiens), for Cc1n[nH]c2ccc(-c3cc(N[C@@H](CO)c4ccccc4)cnc3-c3cccc4cc[nH]c34)cc12 .
56.4
